Examples of binders with documented ELISA score follow.
# TARGET_OF_ASSAY: T1, human neonatal Fc receptor (hFcRn) (human, UniProt P55899 24-290; P61769 21-119)
# T1 construct: Biotinylated in the ELISA, Octet and yeast assays; also called human FcRn; huFcRn
# EXPERIMENTAL_PROTOCOL: phage ELISA pH 7.4;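 note: higher score means stronger binding and above about 3 to 5 exceeds background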
Enter the number alone.

Below: 3 binders and their reported ELISA score.
{"BINDER": "L5 isolate with insertion SEQ ID NO: 491 (other) EPKSCDKTHTCPPCPAPELLGGPSVFLFPPKPKDTLMISRTPEVTCVVVDVSHEDPEVKFNWYVDGVEVHNAKTKPREEQYNSTYRVVSVLTVLHQDWLNGKEYKCKVSNKALPAPIEKTISKAKGQPREPQVYTLPPSRDELTKNQVSLTCLVKGFYPSDIAVEWESNGGSQRAPASCGGGQPENNYKTTPPVLDSDGSFFLYSKLTVDKSRWQQGNVFSCSVMHEALHNHYTQKSLSLSPGK", "ELISA score": 1.2}
{"BINDER": "L5 isolate with insertion SEQ ID NO: 494 (other) EPKSCDKTHTCPPCPAPELLGGPSVFLFPPKPKDTLMISRTPEVTCVVVDVSHEDPEVKFNWYVDGVEVHNAKTKPREEQYNSTYRVVSVLTVLHQDWLNGKEYKCKVSNKALPAPIEKTISKAKGQPREPQVYTLPPSRDELTKNQVSLTCLVKGFYPSDIAVEWESNGGCCPVYQHCGGGQPENNYKTTPPVLDSDGSFFLYSKLTVDKSRWQQGNVFSCSVMHEALHNHYTQKSLSLSPGK", "ELISA score": 0.3}
{"BINDER": "variant Fc-fragment Fc-5-51 (other, soluble elsewhere) EPKSCDKTHTCPPCPAPELLGGPSVFLFPPKPKDTLMISRTPEVTCVVVDVSHEDPEVKFNWYVDGVEVHNAKTKPREEQYNSTYRVVSVLTVLHQDWLNGKEYKCKVSNKALPAPIEKTISKAKGQPREPQVYTLPPSRDELTKNQVSLTCLVKGFYPSDIAVEWESNGGCHLPFAVCGGGQPENNYKTTPPVLDSDGSFFLYSKLTVDKSRWQQGNVFSCSVMHEALHNHYTQKSLSLSPGK", "ELISA score": 0.4}

Okay, now this binder:
Just so you know, measured ELISA score for variant Fc-fragment Fc-5-69 (other, soluble elsewhere) EPKSCDKTHTCPPCPAPELLGGPSVFLFPPKPKDTLMISRTPEVTCVVVDVSHEDPEVKFNWYVDGVEVHNAKTKPREEQYNSTYRVVSVLTVLHQDWLNGKEYKCKVSNKALPAPIEKTISKAKGQPREPQVYTLPPSRDELTKNQVSLTCLVKGFYPSDIAVEWESNGGCWPLQDYCGGGQPENNYKTTPPVLDSDGSFFLYSKLTVDKSRWQQGNVFSCSVMHEALHNHYTQKSLSLSPGK came out at 0.6
